assay: Cytotoxicity assay in BHK-21 cells; type: cell-based, Hamster; conditions: hamster
readout kind: CC50

Here are 2 compounds together with their reported answers.
NC(=O)c1ncn([C@@H]2O[C@H](CO)[C@@H](O)[C@H]2O)n1	> 400 µM
Nc1ncnc2c1c(CO)cn2[C@@H]1O[C@H](CO)[C@@H](O)[C@H]1O [HUP1108, 5-hydroxymethyltubercidin]	> 20 µM

// next item, CC50 requested
Record summary for Nc1c2ccn([C@@H]3O[C@H](CO)[C@@H](O)[C@H]3O)c2nc[n+]1[O-] [HUP1077, 3-tubercidin N-oxide] : reported CC50 = > 20 µM
